The reported numbers originate from patent US20210300932A1.

# Tested on: plasma proteins
# Experimental Protocol: in vitro
# Condition Context: CD-1, mouse, % unbound (Cbuffer/Cplasma) 2
Measurement Type: fraction unbound at 5 hours, 1 microM
Write the number on its own, no unit after it.

Data request: For CC[C@H](C)[C@@H]1NC(=O)[C@H](CC(=O)O)NC(=O)[C@H](CC(C)C)NC(=O)[C@H](Cc2ccc3ccccc3c2)NC(=O)[C@@H]2CCCN2[C@H](C(=O)NC(C)(C)C)[C@H](C)NC1=O , write its fraction unbound at 5 hours, 1 microM.
Data returned: 0.093

====

# Experimental Protocol: in vivo
# Condition Context: male, CD-1, mouse, iv, 5 mg/kg
Measurement Type: AUC(0-inf) (µg·h/mL)
Field: numeric (µg·h/mL). Do not append units.

Data request: Kindly indicate its recorded AUC(0-inf). Item: CC(C)C[C@@H]1NC(=O)c2ccc(-c3ccc(N4CCNCC4)cc3)c(c2)CNC(=O)[C@@H]2CCCN2[C@H](C(=O)NC(C)(C)C)[C@H](C)NC(=O)[C@H]([C@@H](C)O)NC(=O)[C@H](CC(=O)O)NC1=O [Compound No. 340]
Data returned: 0.778
